Data provenance: ChEMBL document CHEMBL1961873

target: Aurora kinase A (Homo sapiens); settings: at 1 µM;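 also: values are mean percent inhibition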
# if value of inhibition reaches 20%, tag 1.0; if it stays below, tag 0.0

Please indicate if the recorded inhibition for `[O-][S+]1CCN(Cc2ccc(-c3ccc4ncnc(Nc5ccc(OCc6cccc(F)c6)c(Cl)c5)c4c3)o2)CC1` meets or exceeds 20%. 0.0

Please indicate if the recorded inhibition for `COC(=O)c1sc(-n2cnc3cc(OC)c(OC)cc32)cc1OCc1ccccc1C(F)(F)F` meets or exceeds 20%. 1.0

Please indicate if the recorded inhibition for `CS(=O)(=O)CCNCc1coc(-c2ccc3ncnc(Nc4ccc(OCc5ccccc5)cc4)c3c2)c1` meets or exceeds 20%. 0.0

Please indicate if the recorded inhibition for `Cc1ccc2c(-c3ccnc(Nc4ccccc4)n3)c(-c3ccc(F)cc3)nn2n1` meets or exceeds 20%. 0.0

Please indicate if the recorded inhibition for `COc1ccc2c(-c3ccnc(Nc4cccc(OC(F)(F)F)c4)n3)cnn2n1` meets or exceeds 20%. 1.0

Please indicate if the recorded inhibition for `Clc1ccc(-c2nn3ncccc3c2-c2ccnc(Nc3ccccc3)n2)cc1` meets or exceeds 20%. 1.0

Please indicate if the recorded inhibition for `CNC(=O)c1cc(-c2ccc(F)cc2)cc(-c2ccc(S(=O)(=O)N3CCCC3)cc2)c1N` meets or exceeds 20%. 0.0

Please indicate if the recorded inhibition for `O=C(O[C@H]1CN[C@H](C#Cc2cc3ncnc(Nc4ccc(Cc5ccccc5)cc4)c3s2)C1)N1CCOCC1` meets or exceeds 20%. 0.0

Please indicate if the recorded inhibition for `CC(=O)Nc1cccc(C#Cc2cncnc2Nc2ccc(OCc3cccc(F)c3)c(Cl)c2)c1` meets or exceeds 20%. 0.0

====

target: Cyclin-dependent kinase 1 (Homo sapiens); conditions: at 1 µM;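 also: mean percent inhibition of the CDK1/cyclin B complex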
measurement type: inhibition (%)
Numeric only. Scale: %

With Cyclin-dependent kinase 1 (Homo sapiens) as the test system, `CNC(=O)c1cncc(/C=C/c2ccccc2Cl)c1` showed inhibition of 3.2

With Cyclin-dependent kinase 1 (Homo sapiens) as the test system, `Nc1nc(-c2ccc(F)cc2)c(-c2ccc3ncccc3n2)s1` showed inhibition of 8.07

With Cyclin-dependent kinase 1 (Homo sapiens) as the test system, `Cc1ccc2c(-c3ccnc(Nc4ccccc4)n3)c(-c3ccc(F)cc3)nn2n1` showed inhibition of 1.56

With Cyclin-dependent kinase 1 (Homo sapiens) as the test system, `COc1cc2c(cc1Nc1nc(Nc3ccsc3C(N)=O)c3cc[nH]c3n1)N(C(=O)CN(C)C)CCC2(C)C` showed inhibition of 6.04

With Cyclin-dependent kinase 1 (Homo sapiens) as the test system, `FC(F)(F)c1cccc(-c2nn3ncccc3c2-c2ccnc(Nc3ccc4c(c3)OCCO4)n2)c1` showed inhibition of 3.23

With Cyclin-dependent kinase 1 (Homo sapiens) as the test system, `CCn1c(-c2nonc2N)nc2ccccc21` showed inhibition of 0.59

With Cyclin-dependent kinase 1 (Homo sapiens) as the test system, `CCn1c(-c2nonc2N)nc2c(C#CC(C)(C)O)ncc(OC3CCNCC3)c21` showed inhibition of 2.34

With Cyclin-dependent kinase 1 (Homo sapiens) as the test system, `CC(=O)NCc1cccc(C#Cc2cncnc2Nc2ccc(OCc3cccc(F)c3)c(Cl)c2)c1` showed inhibition of 2.88

With Cyclin-dependent kinase 1 (Homo sapiens) as the test system, `CCn1cc(-c2ccnc3[nH]ccc23)c(-c2cccc(NC(=O)Nc3ccc(OCc4ccccc4)cc3)c2)n1` showed inhibition of 0.38

With Cyclin-dependent kinase 1 (Homo sapiens) as the test system, `COc1cccc(-c2c[nH]c3c(N/N=C/c4ccncc4)ncnc23)c1` showed inhibition of 74.2

With Cyclin-dependent kinase 1 (Homo sapiens) as the test system, `c1ccc(COc2ccc(Nc3ncnc4ccc(-c5ccco5)cc34)cc2)cc1` showed inhibition of 2.26

With Cyclin-dependent kinase 1 (Homo sapiens) as the test system, `COc1ccc(-c2nn3ncccc3c2-c2ccnc(Nc3ccc4c(c3)OCCO4)n2)cc1` showed inhibition of 1.38

With Cyclin-dependent kinase 1 (Homo sapiens) as the test system, CC1=C(C(=O)Nc2cc(Cl)c3[nH]ncc3c2)C(c2ccc(C(F)(F)F)cc2)CC(=O)N1 (stereo not given) showed inhibition of 1.81

With Cyclin-dependent kinase 1 (Homo sapiens) as the test system, `CNC(=O)c1cc(-c2ccc(F)cc2)cc(-c2ccc(S(=O)(=O)N3CCCC3)cc2)c1N` showed inhibition of 1.19

With Cyclin-dependent kinase 1 (Homo sapiens) as the test system, `O=C(Nc1n[nH]c2cc(-c3ccc(F)cc3)ccc12)C1CC1` showed inhibition of 4.52

With Cyclin-dependent kinase 1 (Homo sapiens) as the test system, `CN1CCC(n2cnc(-c3ccc(F)cc3)c2-c2ccnc(Nc3ccccc3)n2)CC1` showed inhibition of 2.52

With Cyclin-dependent kinase 1 (Homo sapiens) as the test system, `CCCN(CCS(C)(=O)=O)Cc1ccc(-c2ccc3ncnc(Nc4ccc(OCc5cccc(F)c5)c(Cl)c4)c3c2)o1` showed inhibition of 8.04

With Cyclin-dependent kinase 1 (Homo sapiens) as the test system, `Fc1ccc(-c2nn3ccccc3c2-c2ccncc2)cc1` showed inhibition of 1.96

With Cyclin-dependent kinase 1 (Homo sapiens) as the test system, `CCN1CCC(CC(=O)Nc2n[nH]c3nnc(-c4cccc(F)c4F)cc23)CC1` showed inhibition of 8.73

With Cyclin-dependent kinase 1 (Homo sapiens) as the test system, `COc1ccc(-c2cc(-c3c[nH]nc3-c3ccccn3)ccn2)cc1` showed inhibition of 1.79
